- targetSystem: Serine/threonine-protein kinase BRSK2 (Homo sapiens);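 note: mean kinase inhibition reported within the GSK PKIS dataset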
- conditionDescription: at 1 µM
observable: inhibition (%)
Numbers only here, please. The scale is %.

// below: answered compounds
COc1cc(Nc2ncc3c(C)nc(-c4cccc(C(F)(F)F)c4)n3n2)cc(OC)c1OC; 9.19
NCc1ccc(-n2c(-c3nonc3N)nc3cnccc32)cc1; 8.49
Fc1ccc(-c2ncn(C3CCNCC3)c2-c2ccnc(Oc3ccc(Oc4ccccc4)cc3)n2)cc1; 1.66
CN(C)c1ccc2c(c1)/C(=C/Nc1ccc(S(N)(=O)=O)cc1)C(=O)N2; 54.2
CCc1cccc(CC)c1/C=C/c1cncc(C(=O)NC)c1; 0.3

Problem: Return the recorded inhibition value; entry: `c1ccc(Oc2ccc(Nc3ncc(-c4ccccc4)o3)cc2)cc1`
Result: 1.39

Problem: Return the recorded inhibition value; entry: `COc1ccc(C2=C(N3CCc4ccccc43)C(=O)NC2=O)cc1`
Result: 3.2

Problem: Return the recorded inhibition value; entry: `NS(=O)(=O)c1ccc(Nc2cc(-c3ccc(O)c(F)c3)n[nH]2)cc1`
Result: 16.7

* * *

- targetSystem: Dual specificity protein kinase CLK2 (Homo sapiens);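 note: reported values are mean percent inhibition of CLK2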
- conditionDescription: at 1 µM
inhibition reference
Numbers only here, please. The scale is %.

// below: answered compounds
NC(=O)c1cc(-c2ccncc2)cc(-c2ccccc2)c1N; 1.33
c1ccc(Oc2ccc(Nc3ncc(-c4ccccc4)o3)cc2)cc1; -0.28
COc1cccc(/C=N/Nc2ncnc3c2cnn3-c2cccc(OC)c2)c1; 0.99

Problem: Return the recorded inhibition value; entry: `COc1cc(C)c(N(C)C(=O)CN(C)C)cc1Nc1nc(Nc2cccc(F)c2C(N)=O)c2cc[nH]c2n1`
Result: 12.6

* * *

inhibition reference
- targetSystem: G protein-coupled receptor kinase 6 (Homo sapiens);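 note: mean percent inhibition of GRK6, GSK PKIS screen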
- conditionDescription: at 0.1 µM
Numbers only here, please. The scale is %.

NS(=O)(=O)c1ccc(N/N=C2\C(=O)Nc3ccc(-c4cnco4)cc32)cc1; -0.25
CN(C)CCOc1ccc(-c2cc(-c3ccc4c(c3)CCC4=NO)c(-c3ccncc3)o2)cc1; -3.48
Cc1nnc(-c2ccc(C)c(-c3ccc(C(=O)NCc4ccc(Cl)cc4)cc3)c2)o1; 5.17
CCN(CC)Cc1ccc(Nc2nccc(-c3cnn4ncccc34)n2)cc1; 2.33

Problem: State recorded inhibition with G protein-coupled receptor kinase 6 (Homo sapiens), entry `CNC(=O)c1cncc(/C=C/c2c(C)cccc2C)c1` , no comment.
Result: 4.6

Problem: State recorded inhibition with G protein-coupled receptor kinase 6 (Homo sapiens), entry `NC(=O)c1ccc(Oc2nccc(-c3c(-c4ccc(F)cc4)ncn3C3CCNCC3)n2)cc1` , no comment.
Result: 4.21

Problem: State recorded inhibition with G protein-coupled receptor kinase 6 (Homo sapiens), entry `COc1cc(N2CCN(C(C)C)CC2)ccc1Nc1nc(Nc2ccc(F)cc2C(=O)NC[C@@H](O)CO)c2cc[nH]c2n1` , no comment.
Result: 9.59

Problem: State recorded inhibition with G protein-coupled receptor kinase 6 (Homo sapiens), entry `NC(=O)c1cc(-c2ccncc2)cc(-c2ccccc2)c1N` , no comment.
Result: 3.52

* * *

- targetSystem: Protein kinase C eta type (Homo sapiens) (UniProt P24723);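 note: values are the mean percent inhibition of PKC-eta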
- Sequence (P24723 whole entry): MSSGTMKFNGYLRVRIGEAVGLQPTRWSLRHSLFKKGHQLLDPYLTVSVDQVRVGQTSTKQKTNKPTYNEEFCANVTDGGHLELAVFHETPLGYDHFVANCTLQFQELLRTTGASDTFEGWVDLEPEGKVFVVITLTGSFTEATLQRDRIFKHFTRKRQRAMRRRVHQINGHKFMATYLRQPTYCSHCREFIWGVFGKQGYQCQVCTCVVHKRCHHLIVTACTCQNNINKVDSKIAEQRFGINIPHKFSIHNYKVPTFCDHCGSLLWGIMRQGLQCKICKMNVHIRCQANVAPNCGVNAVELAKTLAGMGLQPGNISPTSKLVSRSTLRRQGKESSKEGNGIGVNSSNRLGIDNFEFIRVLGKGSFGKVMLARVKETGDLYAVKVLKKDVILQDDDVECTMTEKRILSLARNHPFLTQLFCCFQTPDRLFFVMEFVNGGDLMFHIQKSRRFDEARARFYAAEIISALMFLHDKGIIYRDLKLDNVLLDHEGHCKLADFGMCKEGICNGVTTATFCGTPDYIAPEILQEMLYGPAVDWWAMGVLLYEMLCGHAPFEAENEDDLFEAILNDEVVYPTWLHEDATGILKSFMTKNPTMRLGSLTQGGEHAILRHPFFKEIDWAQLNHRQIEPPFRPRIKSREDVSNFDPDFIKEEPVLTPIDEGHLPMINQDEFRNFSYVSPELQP
- conditionDescription: at 0.1 µM
observable: inhibition (%)
Numbers only here, please. The scale is %.

CS(=O)(=O)CCNCc1cc(-c2cc3c(Nc4ccc(OCc5cccc(F)c5)c(Cl)c4)ncnc3s2)cs1; 5.83
CCS(=O)(=O)c1ccc(OC)c(Nc2ncc(-c3cccc(-c4ccccc4F)c3)o2)c1; -1.89
O=C(Nc1ccc(Oc2ccc3[nH]c(NC(=O)c4ccccc4)nc3c2)cc1)Nc1cc(C(F)(F)F)ccc1F; 1.1

Problem: Return the recorded inhibition value; entry: `C[C@@H](Oc1cc(-n2cnc3ccc(OCC4CCN(C)CC4)cc32)sc1C(N)=O)c1ccccc1Cl`
Result: 5.52

Problem: Return the recorded inhibition value; entry: `NC(=O)c1cc(-c2ccncc2)cc(-c2ccccc2)c1N`
Result: 5.05
